assay: qHTS assay for small molecule disruptors of the mitochondrial membrane potential - cell viability (AID 720634); conditions: HepG2 viability, ATP luminescence (CellTiter-Glo), 1 h; series mostly up to 83.2 µM; also: nearly all actives have a fitted effect of over 20% in size
Results filed as inconclusive are left out. Calls of active or inactive are those of the source. Calls follow the shape of the full dose curve.
Labels: active, inactive

# compound, assignedClass
records = [
    ("CC(=O)C(Cl)C(=O)N(C)C (configuration not stated)", "inactive"),
    ("Nc1ccccc1-c1ccccc1", "inactive"),
    ("O=c1c2ccccc2c(=O)c2c1cc(Cl)c1[nH]c3c([nH]c12)c(Cl)cc1c(=O)c2ccccc2c(=O)c13", "inactive"),
    ("CN1C(=O)[C@@H](NC(=O)c2cc3ccccc3[nH]2)N=C(c2ccccc2)c2ccccc21", "inactive"),
    ("CN1CCc2cc3c(cc2C1O)OCO3 (configuration not stated)", "inactive"),
    ("C#CC1(O)CCCCC1", "inactive"),
    ("N#CCCl", "inactive"),
    ("Brc1ccc(Oc2ccc(Br)cc2Br)c(Br)c1", "inactive"),
    ("CC(C)=CC1C(C(=O)OC(C#N)c2cccc(Oc3ccccc3)c2)C1(C)C (configuration not stated)", "inactive"),
    ("CCCCc1ccccc1", "inactive"),
    ("c1ccc2nc(N3CCNCC3)ccc2c1", "inactive"),
    ("O=[N+]([O-])c1cc(C(F)(F)F)c(Cl)c([N+](=O)[O-])c1Nc1ncc(C(F)(F)F)cc1Cl", "active"),
]
